# target-of-assay: UniProt:P47901
# Sequence (P47901 whole entry): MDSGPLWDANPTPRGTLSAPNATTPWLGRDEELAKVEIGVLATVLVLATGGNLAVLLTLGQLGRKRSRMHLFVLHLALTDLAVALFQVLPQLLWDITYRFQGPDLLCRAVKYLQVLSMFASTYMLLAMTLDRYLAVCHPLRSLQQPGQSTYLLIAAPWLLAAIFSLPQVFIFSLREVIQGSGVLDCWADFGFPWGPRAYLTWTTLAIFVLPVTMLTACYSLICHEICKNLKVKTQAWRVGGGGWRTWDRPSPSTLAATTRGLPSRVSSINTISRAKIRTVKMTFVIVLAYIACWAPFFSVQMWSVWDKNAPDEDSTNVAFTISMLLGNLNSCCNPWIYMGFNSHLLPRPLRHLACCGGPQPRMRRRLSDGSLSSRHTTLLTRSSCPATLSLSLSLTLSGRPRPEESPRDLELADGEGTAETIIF
# assay-summary: V1b binding assay (3H-AVP displacement, HEK-293 membranes)
# Design: expressed in transfected cells; host or cells: HEK-293 (membranes)
pIC50: −log10 of the molar value.
property: pIC50

| compound | measurement |
| --- | --- |
| CC1CCCCN1CCCn1c(=O)n(C2CCN(C(=S)NC(c3ccccc3)c3ccccc3)CC2)c2ccccc21 (stereo not drawn) | 6.82 |
| COC(=O)C(Cc1ccccc1)NC(=S)N1CCC(n2c(=O)n(CCCN3CCCC3)c3ccccc32)CC1 (stereo not drawn) | 5.92 |
| O=c1n(CCCN2CCC(N3CCCCC3)CC2)c2ccccc2n1C1CCN(C(=S)NC(c2ccccc2)c2ccccc2)CC1 | 6.17 |
